Source: the RNAGym collection of RNA variant scans (doi:10.7554/elife.80360)

Listed here: items and their measured self-cleavage.
B1: CPEB3 Ribozyme (parent)
chain: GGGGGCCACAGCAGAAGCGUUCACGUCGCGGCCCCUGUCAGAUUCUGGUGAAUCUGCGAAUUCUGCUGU

- Variants of: B1
- Protocol details: self-cleavage, relative activity (ratio to wild type); higher = more cleavage; co-transcriptional
Write the value as a bare number.

# example entries with known answers
| Mut | Data value |
| --- | --- |
| U26G C66A | 0.533 |
| A10C U49G | 1.04 |
| C39A A59G | 0.911 |
| C9U C32U | 1.02 |
| G48A A51G | 1.03 |
| C6U A40G | 0.999 |
| C9G C18U | 0.935 |
| G47A A60G | 0.944 |

[in] self-cleavage lookup needed for G5C G58A , thanks.
[out] 0.198

[in] Which self-cleavage value belongs to C12U U46G ?
[out] 1

[in] // lookup self-cleavage for U21A G58C
[out] 0.938
